The entries below are paired with their reported Hill slopes for TRPM7 inhibition.
- target_system: TRPM7 (Mus musculus)
- Sequence (Q923J1 whole entry): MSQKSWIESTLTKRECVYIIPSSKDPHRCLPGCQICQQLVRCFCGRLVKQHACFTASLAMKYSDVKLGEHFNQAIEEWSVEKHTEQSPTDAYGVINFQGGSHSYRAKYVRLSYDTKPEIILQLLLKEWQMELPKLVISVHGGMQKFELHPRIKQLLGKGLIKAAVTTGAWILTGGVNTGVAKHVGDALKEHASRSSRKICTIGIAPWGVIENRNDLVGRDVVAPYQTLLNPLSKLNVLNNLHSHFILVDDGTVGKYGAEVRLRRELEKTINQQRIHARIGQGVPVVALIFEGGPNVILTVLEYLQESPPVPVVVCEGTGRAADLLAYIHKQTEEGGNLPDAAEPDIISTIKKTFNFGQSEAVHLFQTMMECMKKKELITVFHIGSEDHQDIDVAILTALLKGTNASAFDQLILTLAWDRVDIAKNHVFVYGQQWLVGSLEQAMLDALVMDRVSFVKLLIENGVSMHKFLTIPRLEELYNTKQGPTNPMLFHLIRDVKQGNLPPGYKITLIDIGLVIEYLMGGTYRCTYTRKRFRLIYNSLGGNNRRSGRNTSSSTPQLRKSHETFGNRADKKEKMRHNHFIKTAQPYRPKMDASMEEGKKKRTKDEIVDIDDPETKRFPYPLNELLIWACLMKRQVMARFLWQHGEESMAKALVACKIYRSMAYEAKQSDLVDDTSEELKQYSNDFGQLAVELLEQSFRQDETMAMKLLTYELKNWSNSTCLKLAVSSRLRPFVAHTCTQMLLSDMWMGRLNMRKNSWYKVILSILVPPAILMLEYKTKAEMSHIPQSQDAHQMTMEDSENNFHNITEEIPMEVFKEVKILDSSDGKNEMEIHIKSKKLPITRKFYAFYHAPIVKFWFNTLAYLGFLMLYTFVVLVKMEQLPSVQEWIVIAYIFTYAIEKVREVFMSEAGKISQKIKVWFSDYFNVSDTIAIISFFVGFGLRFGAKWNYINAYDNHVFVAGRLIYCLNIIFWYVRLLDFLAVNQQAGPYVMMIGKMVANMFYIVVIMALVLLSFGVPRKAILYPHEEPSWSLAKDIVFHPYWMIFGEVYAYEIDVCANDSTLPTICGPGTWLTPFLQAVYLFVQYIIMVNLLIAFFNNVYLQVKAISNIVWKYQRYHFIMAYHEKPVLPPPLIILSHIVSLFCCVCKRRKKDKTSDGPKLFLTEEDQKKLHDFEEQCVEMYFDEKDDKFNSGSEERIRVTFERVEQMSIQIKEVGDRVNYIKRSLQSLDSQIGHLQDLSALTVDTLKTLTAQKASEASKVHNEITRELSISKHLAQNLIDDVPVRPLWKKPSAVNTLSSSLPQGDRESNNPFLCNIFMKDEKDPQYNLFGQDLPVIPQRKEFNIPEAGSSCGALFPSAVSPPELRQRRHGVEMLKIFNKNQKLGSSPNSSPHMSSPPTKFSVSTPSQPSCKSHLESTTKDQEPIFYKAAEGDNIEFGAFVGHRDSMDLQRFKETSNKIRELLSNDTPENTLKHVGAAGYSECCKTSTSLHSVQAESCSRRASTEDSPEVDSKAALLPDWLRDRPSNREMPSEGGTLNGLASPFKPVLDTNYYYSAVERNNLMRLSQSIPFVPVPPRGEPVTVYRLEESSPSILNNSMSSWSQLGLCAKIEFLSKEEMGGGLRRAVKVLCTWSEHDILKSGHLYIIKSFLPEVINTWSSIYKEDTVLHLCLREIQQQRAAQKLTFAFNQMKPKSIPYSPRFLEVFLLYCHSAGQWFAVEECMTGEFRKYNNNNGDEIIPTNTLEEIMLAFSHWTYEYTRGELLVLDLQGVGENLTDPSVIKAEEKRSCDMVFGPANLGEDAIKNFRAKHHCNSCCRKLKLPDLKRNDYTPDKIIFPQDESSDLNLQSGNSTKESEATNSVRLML
- assay_text: Aequorin-based Ca2+ influx assay for TRPM7 inhibition
- Format: cell-based
- setup_conditions: Ca2+ influx assay, logistic equation fits, n = 3
- Experimental: HEK293T cells were transfected with 2 μg TRPM7 plasmid DNA and 0.1 μg pG5A plasmid DNA. […] Luminescence was detected at room temperature using a CLARIOstar microplate reader (BMG Labtech). […] Cell lysis with 0.1% (v/v) Triton X-100 in the Mg^2+-free HBS was used to terminate the experiment, and total bioluminescence was measured. […]
// no unit string in output, number only

Examples with their reported Hill slopes for TRPM7 inhibition follow.
| compound | Hill slopes for TRPM7 inhibition |
| --- | --- |
| Clc1cc2c(cc1Cl)C(Nc1nc3ccccc3[nH]1)CCC2 (centres unmarked) | -1.292 |
| Cc1ccc2c(c1)C(Nc1nc3ccccc3[nH]1)CCC2 (centres unmarked) | -1.123 |

### Prompt Would you mind telling me what Hill slopes for TRPM7 inhibition value was observed for c1ccc2[nH]c(NC3CCCc4ccncc43)nc2c1 (centres unmarked) ?
### Response -0.9579

### Prompt Would you mind telling me what Hill slopes for TRPM7 inhibition value was observed for Clc1cccc2c1CCCC2Nc1nc2ccccc2[nH]1 (centres unmarked) ?
### Response -1.448

### Prompt Would you mind telling me what Hill slopes for TRPM7 inhibition value was observed for c1ccc2c(c1)CCCC2Nc1nc2ccccc2[nH]1 (centres unmarked) [NS8593, reference compound] ?
### Response -1.432

### Prompt Would you mind telling me what Hill slopes for TRPM7 inhibition value was observed for COc1ccc2c(c1)C(Nc1nc3ccccc3[nH]1)CCC2 (centres unmarked) ?
### Response -1.224

### Prompt Would you mind telling me what Hill slopes for TRPM7 inhibition value was observed for c1ccc2[nH]c(NC3CCCc4sccc43)nc2c1 (centres unmarked) ?
### Response -1.210

### Prompt Would you mind telling me what Hill slopes for TRPM7 inhibition value was observed for Fc1ccc2c(c1)C(Nc1nc3ccccc3[nH]1)CCC2 (centres unmarked) ?
### Response -1.165
